Every entry's value here was drawn from patent US20200347144A1.

Target: T1, monkey 4-1BB on CHOK1 cells (monkey)
T1 construct: whole, on cells; also called CHOK1-c4-1BB
Experiment: FACS, CHOK1-c4-1BB cells; Ab 2 ug/ml
experimental_readout: average fluorescence intensity (MFI)
State the answer as a number, implicitly in MFI.

Below, each entry is followed by its recorded average fluorescence intensity result.
119B6G5 (antibody, V domains shown) VH: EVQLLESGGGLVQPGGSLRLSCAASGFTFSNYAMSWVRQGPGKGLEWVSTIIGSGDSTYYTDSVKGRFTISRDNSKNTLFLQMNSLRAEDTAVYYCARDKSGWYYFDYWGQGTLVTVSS VL: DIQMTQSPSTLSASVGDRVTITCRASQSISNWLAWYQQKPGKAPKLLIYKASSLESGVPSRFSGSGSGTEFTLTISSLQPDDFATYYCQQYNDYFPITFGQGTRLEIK ... 1350
15G10D4 (antibody, V domains shown) VH: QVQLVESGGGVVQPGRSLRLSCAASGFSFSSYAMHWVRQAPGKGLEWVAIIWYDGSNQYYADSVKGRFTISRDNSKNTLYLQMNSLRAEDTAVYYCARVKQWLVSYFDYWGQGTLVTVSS VL: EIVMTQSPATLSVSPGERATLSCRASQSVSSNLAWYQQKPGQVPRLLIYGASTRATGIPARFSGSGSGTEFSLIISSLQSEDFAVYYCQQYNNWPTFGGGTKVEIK ... 646

Below: the item to evaluate.
Challenge: Reported average fluorescence intensity for 11H10C9 (antibody, V domains shown) VH: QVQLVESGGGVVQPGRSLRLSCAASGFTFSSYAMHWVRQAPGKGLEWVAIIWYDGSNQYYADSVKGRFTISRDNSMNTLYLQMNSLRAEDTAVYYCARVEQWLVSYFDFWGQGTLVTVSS VL: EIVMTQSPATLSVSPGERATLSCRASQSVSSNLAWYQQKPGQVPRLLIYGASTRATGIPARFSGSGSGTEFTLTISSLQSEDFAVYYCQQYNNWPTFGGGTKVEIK : what is it?
Response given: 576
